// data source = PubChem BioAssay AID623940

target: Muscarinic acetylcholine receptor M1 (Rattus norvegicus); assay: rat M1 muscarinic receptor PAM counter-screen, SAR follow-up, selectivity assay for M4 PAM optimization project, CHO cells, Fluo-4 calcium, ACh EC20 (AID 623940); conditions: CHO rat M1, Fluo-4 calcium, ACh EC20 potentiation

item smiles: Cc1nc2sc(C(=O)NC3CC3)c(N)c2c(C)c1Cl
EC50: 943 nM
